List of melting point values.

Illustrative cases are given below, each with its answer.
* CCNC(=S)OCCOc1ccc(Oc2ccc(F)cc2)cc1 | 73 to 75 °C
* CC(C)COc1cc(-c2ccc(N)c(OCC(C)C)c2)ccc1N | 270 °C
* Cc1ccc(O)c(C)c1N | 177 to 179 °C

Task: Record request: melting point value, item N#Cc1ccc(OCCCc2cn(C(c3ccccc3)(c3ccccc3)c3ccccc3)cn2)cc1
Output: 187 to 188 °C

Task: Record request: melting point value, item O=C(O)c1ccc(NCCCCCCCCCCCc2ccccc2)cc1
Output: 50 to 52 °C

Task: Record request: melting point value, item CCSc1nc2cc(Cl)ccc2s1
Output: 49 to 50 °C

Task: Record request: melting point value, item Clc1ccc(CSCc2ccc(Cl)c(Cl)c2)cc1Cl
Output: 98 to 99 °C

Task: Record request: melting point value, item OCc1cc2ccc3c4ccccc4ccc3c2o1
Output: 125 to 126 °C
